- Target: CBX1 chromodomain Y26AzF/F50AzF (UniProt P83916 20-73, Y26AzF, 4-azido-L-phenylalanine (AzF) at 26 and at 50)
- Assay Remarks: fluorescence polarisation
Endpoint: pKd
Hey, just a heads up that pKd is the negative log base 10 of the concentration in molar.

**Q:** Which pKd value is on record for ARTKQTARKSTGGKA (trimethyllysine at K9; tetramethyl rhodamine (TAMRA) at the N-terminus) [TAMRA-H3K9me3 tracer peptide 2] ?
**A:** 4.31
